Species: Mus musculus
experiment: Activation of UTRN promoter in mouse H2K cells assessed as upregulation of UTRN production at 10 uM after 72 hrs by RT-PCR analysis
Format: functional
A collection of compounds and their measured Activity
Write the number in % without appending the unit.

Some compounds with known Activity results, for comparison:
| molecule | quantity | numericResult |
| --- | --- | --- |
| CCS(=O)(=O)c1ccc2oc(-c3ccc(Cl)c(Cl)c3)nc2c1 | Activity | 138.3 |
| CCS(=O)(=O)c1ccc2oc(-c3ccc4ccccc4c3)nc2c1 | Activity | 143 |
| Cc1cc2nc(-c3ccc(N)cc3O)oc2cc1C | Activity | 144.8 |

From here, focus on the item given below.
Prompt: Fill in the blank: the reported Activity of CC(C)C(=O)Nc1ccc2nc(-c3ccc(Cl)c(Cl)c3)oc2c1 is ____.
Completion: 111.5

====

experiment: Half life in mouse liver microsomes
Type: ADME, Microsome
Reported half-life values for the following molecules.
Reply with just the number (in min).

Observe how each entry below is paired with its result.
| molecule | readoutUnit | half-life |
| --- | --- | --- |
| Cc1cc2nc(-c3ccc(N)cc3O)oc2cc1C | min | 22 |
| CC(C)C(=O)Nc1ccc2oc(-c3ccc(Cl)cc3)nc2c1 | min | 19.3 |
| CCC(=O)c1ccc2oc(-c3ccc(Cl)cc3)nc2c1 | min | 13 |
| CCS(=O)(=O)c1ccc2oc(-c3ccc4ccccc4c3)nc2c1 | min | 81.5 |
| CC(C)C(=O)Nc1ccc2oc(-c3ccc(F)cc3)nc2c1 | min | 16.1 |

Prompt: // query half-life value for entry CS(=O)(=O)c1ccc2oc(-c3ccc4ccccc4c3)nc2c1
Completion: 33.4

Prompt: Fill in: half-life of CCS(=O)(=O)c1ccc2oc(-c3ccc(Cl)c(Cl)c3)nc2c1 is ___
Completion: 101

Prompt: Please look up its half-life: CCS(=O)(=O)c1ccc2oc(-c3ccc(Cl)cc3)nc2c1
Completion: 30.6

====

Organism: Mus musculus
experiment: Activation of UTRN promoter in mouse H2K cells assessed as upregulation of UTRN production after 48 hrs by luciferase reporter linked assay
Type: functional, cell-based
runConditions: h2k
quantity: EC50 (nM)
The answer is to be given in nM; state only the numeric part.

Prompt: Give the measured EC50 of CCS(=O)(=O)c1ccc2oc(-c3ccc4ccccc4c3)nc2c1 .
Completion: 910

====

solubility kinetic listing for selected compounds.
experiment: Aqueous solubility of the compound by turbidimetry
Assay type: physicochemical
runConditions: buffer
Provide a numeric answer, followed by its unit.

Previously resolved entries follow.
| molecule | solubility kinetic |
| --- | --- |
| CCS(=O)(=O)c1ccc2oc(-c3ccc(Cl)cc3)nc2c1 | 10 µM |
| CCS(=O)(=O)c1ccc2oc(-c3ccccc3)nc2c1 | 100 µM |
| CCS(=O)(=O)c1ccc2oc(-c3ccc4ccccc4c3)nc2c1 | 3 µM |
| CCS(=O)(=O)c1ccc2oc(-c3ccc(Cl)c(Cl)c3)nc2c1 | 3 µM |
| CC(C)C(=O)Nc1ccc2oc(-c3ccc(Cl)cc3)nc2c1 | 3 µM |

Prompt: # lookup: solubility kinetic of Cc1cc2nc(-c3ccc(N)cc3O)oc2cc1C
Completion: 1 µM

====

experiment: Half life in human liver microsomes
Format: ADME, Microsome
half-life listing for selected molecules.
Just the number please, in h, no unit attached.

Observe how each entry below is paired with its result.
| molecule | numericResult |
| --- | --- |
| CCS(=O)(=O)c1ccc2oc(-c3ccc(Cl)c(Cl)c3)nc2c1 | 1.75 |
| CCS(=O)(=O)c1ccc2oc(-c3ccc4sccc4c3)nc2c1 | 0.983 |
| CCS(=O)(=O)c1ccc2oc(-c3ccc4ccccc4c3)nc2c1 | 1.75 |
| CCS(=O)(=O)c1ccc2oc(-c3ccc4c(c3)CCC4)nc2c1 | 0.333 |
| CC(C)C(=O)Nc1ccc2oc(-c3ccc(Cl)cc3)nc2c1 | 4.77 |

Prompt: Using the record for CCS(=O)(=O)c1ccc2oc(-c3ccc(Cl)cc3)nc2c1 , report its half-life.
Completion: 1.15
